- MEASURED_TARGET: Tyrosine-protein phosphatase non-receptor type 1 (Homo sapiens)
- Sequence (whole entry): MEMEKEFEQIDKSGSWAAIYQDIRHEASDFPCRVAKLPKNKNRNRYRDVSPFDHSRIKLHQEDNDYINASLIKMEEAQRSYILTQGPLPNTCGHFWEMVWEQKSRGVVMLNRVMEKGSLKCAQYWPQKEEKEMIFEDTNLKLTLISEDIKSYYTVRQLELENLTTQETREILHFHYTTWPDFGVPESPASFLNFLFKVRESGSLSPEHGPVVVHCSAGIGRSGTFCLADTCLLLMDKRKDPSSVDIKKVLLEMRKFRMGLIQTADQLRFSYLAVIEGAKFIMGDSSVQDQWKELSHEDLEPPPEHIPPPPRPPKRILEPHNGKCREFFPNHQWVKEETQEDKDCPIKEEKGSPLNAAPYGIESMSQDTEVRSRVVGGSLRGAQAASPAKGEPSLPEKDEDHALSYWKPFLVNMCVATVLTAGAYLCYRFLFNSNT
- EXPERIMENTAL_DETAILS: Inhibition of GST-tagged human recombinant PTP1B assessed as paranitrophenol accumulation at 10 uM after 10 mins by spectrophotometry
Calls of active or inactive are those of the source. The rule behind the calls is not given here.
QUANTITY_KIND: Activity

{"columns": ["COMPOUND", "QUANTITY_KIND", "RESULT"],
 "data": [
  ["CC(C)=C[C@@H]1C/C(=C\\CC/C(C)=C/CCC2=CC(=O)OC2)C(=O)O1 [HETEROPLEXISOLIDE A]", "Activity", "inactive"],
  ["C/C1=C/CC(C)(C)[C@@H]2CC[C@](C)(O)/C2=C/C1=O", "Activity", "inactive"],
  ["CCOC(C)(C)CC(=O)c1cc(C(C)=O)ccc1OC", "Activity", "inactive"],
  ["C[C@]12C[C@@H](c3ccoc3)OC(=O)[C@@H]1CC[C@@]13COC(=O)[C@@H]1C=CC(=O)[C@H]23 [8-EPIRHYNCHOSPERIN A]", "Activity", "inactive"]
]}
